Measured viability at 0.008 mg/ml, listed per entry.
# assay-name: Genotoxicity in Salmonella typhimurium TA1535 harboring pSK1002 assessed as survival at 0.008 mg/ml in presence of Sprague-Dawley rat liver S9 fraction after by SOS/umu assay relative to control
# Format: toxicity, organism-based
# measurement-setup: salmonella enterica subsp. enterica serovar typhimurium, read-out: Survival
The response must be a number in % with no trailing unit.

| molecule | display-unit | assay-value |
| --- | --- | --- |
| N#Cc1ccc(C(O)CCN2CC=C(c3ccc(F)cc3)CC2)cc1 (stereo not drawn) | % | 108 |
| COc1ccccc1N1CCN(CCC(O)c2ccc(F)c3ccccc23)CC1 (stereo not drawn) | % | 99.1 |
| COc1ccccc1C1=CCN(CCC(O)c2ccc(F)c3ccccc23)CC1 (stereo not drawn) | % | 96.9 |
| OC(CCN1CCN(C(c2ccccc2)c2ccccc2)CC1)c1ccc(Br)cc1 (stereo not drawn) | % | 98.1 |
| OC(CCN1CCN(C(c2ccccc2)c2ccccc2)CC1)c1ccc(Cl)cc1 (stereo not drawn) | % | 98.8 |
| COc1ccccc1C1=CCN(CCC(O)c2ccc(F)cc2)CC1 (stereo not drawn) | % | 88.3 |
| O=[N+]([O-])c1ccccc1N1CCN(CCC(O)c2ccc(F)c3ccccc23)CC1 (stereo not drawn) | % | 89.5 |

Turning to the following molecule.
viability at 0.008 mg/ml in this record for N#Cc1ccc(N2CCC(NCCC(O)c3ccc(F)c4ccccc34)CC2)c(Br)c1 (stereo not drawn) : 87.4

----------
# assay-name: Genotoxicity in Salmonella typhimurium TA1535 harboring pSK1002 assessed as umu gene induction at 0.004 mg/ml in presence of Sprague-Dawley rat liver S9 fraction after by SOS/umu assay relative to control
# Type: toxicity, organism-based
# measurement-setup: salmonella enterica subsp. enterica serovar typhimurium, read-out: FC
Measured fold induction at 0.004 mg/ml, listed per entry.
Answer with the value's number alone.

| molecule | measured-property | assay-value |
| --- | --- | --- |
| COc1ccccc1N1CCN(CCC(O)c2ccc(F)cc2)CC1 (stereo in doubt; 66) | fold induction at 0.004 mg/ml | 1 |

fold induction at 0.004 mg/ml in this record for N#Cc1ccc(N2CCC(NCCC(O)c3ccc(F)c4ccccc34)CC2)c(C(F)(F)F)c1 (stereo in doubt; 72) : 0.7

fold induction at 0.004 mg/ml in this record for OC(CCN1CCN(c2ccc(F)cc2)CC1)c1ccc(F)c2ccccc12 (centres undefined) : 0.8

fold induction at 0.004 mg/ml in this record for COc1ccccc1C1=CCN(CCC(O)c2ccc(F)c3ccccc23)CC1 (centres undefined) : 0.8
